Every entry's value here was drawn from patent US20080090805A1.

test: Clearance study, liver microsomes (rats); settings: rat, pH 7.4
Answer Condition not met if microsomal CLint at 1 μM is under 200 µL/min/mg, and Condition met if it is 200 µL/min/mg or more.

1) O=C(NCc1ccccc1Br)c1ccc2c(c1)N=C(c1ccc(Cl)cc1)c1ccccc1S2 [drawing 1788] ... Condition not met
2) Cc1ccc(CNC(=O)c2ccc3c(c2)N=C(c2ccc(Cl)s2)c2ccccc2S3)o1 [drawing 1697] ... Condition not met
3) Cc1csc(CNC(=O)c2ccc3c(c2)N=C(c2cccc(C)n2)c2ccccc2S3)c1 [drawing 1727] ... Condition met
4) CC(CNC(=O)c1ccc2c(c1)N=C(c1cccc(Cl)c1)c1ccccc1S2)c1ccccc1 (centres unmarked) [drawing 1755] ... Condition not met
5) O=C(NCCc1ccc(Cl)cc1)c1ccc2c(c1)N=C(N1CCCCC1)c1ccccc1S2 [drawing 1783] ... Condition met
6) O=C(NCCc1ccc(Cl)cc1)c1ccc2c(c1)N=C(C1CCCCC1)c1ccccc1S2 [drawing 1737] ... Condition met
7) O=C(NCc1ccc(F)cc1)c1ccc2c(c1)N=C(c1ccc(Cl)cc1)c1ccccc1[S+]2[O-] (centres unmarked) [drawing 1772] ... Condition not met
8) O=C(NCCc1ccc(Cl)cc1)c1ccc2c(c1)N=C(N1CCC(F)CC1)c1ccccc1S2 [drawing 1734] ... Condition met

* * *

target: native CB1 receptors (Rattus norvegicus, UniProt P20272); assay: CB1 receptor rat binding assay ([3H]SR141716A, rat brain membranes); conditions: rat brain membranes, [3H]SR141716A
Sequence (P20272 whole entry): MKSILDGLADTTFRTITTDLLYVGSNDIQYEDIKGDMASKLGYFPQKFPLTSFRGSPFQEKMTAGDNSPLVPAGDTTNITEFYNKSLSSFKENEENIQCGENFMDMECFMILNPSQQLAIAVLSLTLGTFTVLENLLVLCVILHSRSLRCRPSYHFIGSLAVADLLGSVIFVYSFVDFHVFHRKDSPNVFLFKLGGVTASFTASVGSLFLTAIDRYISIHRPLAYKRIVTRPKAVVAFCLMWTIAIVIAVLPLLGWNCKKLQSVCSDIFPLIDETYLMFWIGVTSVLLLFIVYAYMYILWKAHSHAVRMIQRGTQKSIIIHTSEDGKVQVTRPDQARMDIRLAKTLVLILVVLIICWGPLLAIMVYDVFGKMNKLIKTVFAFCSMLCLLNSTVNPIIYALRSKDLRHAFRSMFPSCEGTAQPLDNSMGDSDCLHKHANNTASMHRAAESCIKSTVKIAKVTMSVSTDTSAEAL
Doc: threshold 90% (exclusive). Items with Binding rat Inh % beneath it return criterion met; others return criterion not met.

1. O=C(NN1CCCCCC1)c1ccc2c(c1)N=C(c1ccc(Cl)s1)c1ccccc1S2 [drawing 1208] ... criterion not met
2. O=C(NC1CCC(F)(F)CC1)c1ccc2c(c1)N=C(c1ccc(F)cc1)c1ccccc1S2 [drawing 1258] ... criterion not met
3. O=C(NCCCC(F)(F)F)c1ccc2c(c1)N=C(c1cccc(F)c1)c1ccccc1S2 [drawing 1248] ... criterion met
4. CCCCNC(=O)c1ccc2c(c1)N=C(c1ccc(Cl)cc1)c1cc(Cl)ccc1S2 [drawing 1464] ... criterion met
5. O=C(NC1CCCCC1)c1ccc2c(c1)N=C(c1cccc(Cl)c1)c1ccccc1S2 [drawing 1194] ... criterion met
6. Cc1ccsc1C1=Nc2cc(C(=O)NCCC(F)(F)F)ccc2Sc2ccccc21 [drawing 1198] ... criterion not met
7. CCCCNC(=O)c1ccc2c(c1)N=C(c1ccc(Cl)cc1)c1ccc(F)cc1S2 [drawing 1184] ... criterion not met
8. O=C(Cc1ccccc1)NNC(=O)c1ccc2c(c1)N=C(c1ccc(Cl)cc1)c1ccccc1S2 [drawing 1451] ... criterion met
9. COCCNC(=O)c1ccc2c(c1)N=C(c1ccc(Cl)s1)c1ccccc1S2 [drawing 1218] ... criterion met
10. O=C(NCCC(F)(F)F)c1ccc2c(c1)N=C(c1cccc(F)c1)c1ccccc1S2 [drawing 1337] ... criterion not met
11. CN1c2ccc(C(=O)NCc3ccc(F)cc3)cc2N=C(c2ccc(F)cc2)c2ccccc21 [drawing 1496] ... criterion met
12. CCCCNC(=O)c1ccc2c(c1)N=C(c1ccc(Cl)cc1)c1ccc(Cl)cc1S2 [drawing 1187] ... criterion not met
13. O=C(NNCC(F)(F)F)c1ccc2c(c1)N=C(c1ccc(Cl)cc1)c1ccccc1S2 [drawing 1488] ... criterion met
14. O=C(NCc1cccnc1)c1ccc2c(c1)N=C(c1cccc(Br)c1)c1ccccc1S2 [drawing 1278] ... criterion met
15. CCONC(=O)c1ccc2c(c1)N=C(c1ccc(Cl)c(Cl)c1)c1ccccc1S2 [drawing 1512] ... criterion met
16. O=C(NCCC(F)(F)F)c1ccc2c(c1)N=C(c1ccc(Cl)cc1F)c1ccccc1S2 [drawing 1377] ... criterion not met
17. O=C(NC1CCC(F)(F)CC1)c1ccc2c(c1)N=C(c1ccc(Cl)s1)c1ccccc1S2 [drawing 1224] ... criterion not met
18. COCCNC(=O)c1ccc2c(c1)N=C(c1cccc(Cl)c1)c1ccccc1S2 [drawing 1461] ... criterion met
19. Clc1ccc(C2=Nc3cc(-c4ncc[nH]4)ccc3Sc3ccccc32)cc1 [drawing 1485] ... criterion met
20. CCCCNC(=O)c1ccc2c(c1)N=C(c1ccccn1)c1ccccc1S2 [drawing 1527] ... criterion not met
21. O=C(NN1CCCCCC1)c1ccc2c(c1)N=C(c1ccccc1F)c1ccccc1S2 [drawing 1342] ... criterion not met
22. CC(C)CNC(=O)c1ccc2c(c1)N=C(c1ccc(Cl)cc1)c1ccc(Cl)cc1S2 [drawing 1525] ... criterion met
23. O=C(NCc1ccncc1)c1ccc2c(c1)N=C(c1ccc(F)cc1)c1ccccc1S2 [drawing 1443] ... criterion met
24. CCCCNC(=O)c1ccc2c(c1)N=C(c1ccc(Cl)s1)c1ccccc1S2 [drawing 1191] ... criterion not met
25. O=C(NCCc1ccccn1)c1ccc2c(c1)N=C(c1cccc(Cl)c1)c1ccccc1S2 [drawing 1475] ... criterion met
26. O=C(NCCc1ccncc1)c1ccc2c(c1)N=C(c1ccc(F)cc1)c1ccccc1S2 [drawing 1220] ... criterion not met
27. CC(C)CNC(=O)c1ccc2c(c1)N=C(c1ccc(Cl)c(Cl)c1)c1ccccc1S2 [drawing 1192] ... criterion not met
28. CC(C)CCNC(=O)c1ccc2c(c1)N=C(c1ccccc1F)c1ccccc1S2 [drawing 1509] ... criterion met

* * *

target: CB1 (mutant) (Homo sapiens, UniProt P21554); assay: R-SAT functional receptor assay, CB1 (mutant, truncated after amino acid 417); type: cell-based; details: Appendix A; R-SAT CB1; receptor form not stated; relative to SR141716 (100%); read-out: % Inhibition
Sequence (P21554 1-417, change not shown): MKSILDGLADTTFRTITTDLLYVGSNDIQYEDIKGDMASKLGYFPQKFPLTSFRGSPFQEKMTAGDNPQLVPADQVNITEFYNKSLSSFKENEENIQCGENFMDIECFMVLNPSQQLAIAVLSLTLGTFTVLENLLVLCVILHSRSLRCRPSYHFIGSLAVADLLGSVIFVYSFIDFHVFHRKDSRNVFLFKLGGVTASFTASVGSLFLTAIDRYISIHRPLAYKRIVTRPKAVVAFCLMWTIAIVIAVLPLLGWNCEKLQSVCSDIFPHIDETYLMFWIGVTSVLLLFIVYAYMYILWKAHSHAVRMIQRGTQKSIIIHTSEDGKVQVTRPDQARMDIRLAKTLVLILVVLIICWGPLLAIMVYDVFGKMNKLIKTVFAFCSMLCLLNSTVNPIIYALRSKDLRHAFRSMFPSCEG
readout_name: Emax

1. O=C(NCc1ccncc1)c1ccc2c(c1)N=C(c1ccc(Cl)cc1)c1ccccc1S2 [drawing 696] ... 105%
2. O=C(NCc1ccco1)c1ccc2c(c1)N=C(c1ccc(Cl)cc1)c1ccccc1S2 [drawing 753] ... 94%
3. O=C(NCc1cccc(Cl)c1)c1ccc2c(c1)N=C(c1ccc(F)cc1)c1ccccc1S2(=O)=O [drawing 833] ... 108%
4. O=C(NCCC(F)(F)F)c1ccc2c(c1)N=C(c1ccc(Cl)cc1F)c1ccccc1S2 [drawing 667] ... 100%
5. O=C(NCCc1ccc(Cl)cc1)c1ccc2c(c1)N=C(C1CCCCC1)c1ccccc1S2 [drawing 889] ... 104%
6. CCCC1=Nc2cc(C(=O)N3CCN(C(=O)c4ccco4)CC3)ccc2Sc2ccccc21 ... 88%
7. CCCNC(=O)c1ccc2c(c1)N=C(c1sccc1C)c1ccccc1S2 [drawing 927] ... 99%
8. CCCC1=Nc2cc(C(=O)NCCN3CCOCC3)ccc2Sc2ccccc21 ... 98%
9. O=C(NCc1ccccc1Br)c1ccc2c(c1)N=C(N1CCCCC1)c1ccccc1S2 [drawing 890] ... 62%
10. CCN(CCNC(=O)c1ccc2c(c1)N=C(c1ccc(Cl)cc1)c1ccccc1S2)c1ccccc1 [drawing 635] ... 102%
11. O=C(NC1CCCC1)c1ccc2c(c1)N=C(c1ccccn1)c1ccccc1S2 ... 81%
12. CCCC1=Nc2cc(C(=O)NC3CCN(C(=O)OCC)CC3)ccc2Sc2ccccc21 ... 77%
13. CCOCCNC(=O)c1ccc2c(c1)N=C(c1ccc(F)cc1)c1ccccc1S2 [drawing 596] ... 94%
14. O=C(NCCC(F)(F)F)c1ccc2c(c1)N=C(c1cccc(F)c1)c1ccccc1S2 [drawing 625] ... 85%
15. Cc1ccc(CNC(=O)c2ccc3c(c2)N=C(c2ccc(Cl)s2)c2ccccc2S3)o1 [drawing 765] ... 92%
16. O=C(NCc1cccnc1)c1ccc2c(c1)N=C(c1cccc(F)c1)c1ccccc1S2 [drawing 793] ... 130%
17. O=C(NC1CCC(F)(F)CC1)c1ccc2c(c1)N=C(c1cccc(Cl)c1)c1ccccc1S2 [drawing 699] ... 91%
18. Cc1cccc(C2=Nc3cc(C(=O)NCCC(F)(F)F)ccc3Sc3ccccc32)n1 [drawing 815] ... 93%
19. O=C(NCCc1ccc(Cl)cc1)c1ccc2c(c1)N=C(c1ccc(F)cc1)c1ccccc1S2 [drawing 673] ... 107%
20. CCCC1=Nc2cc(C(=O)NN3CCCCC3)ccc2Sc2ccccc21 ... 80%
21. CCCC1=Nc2cc(C(=O)N3CCc4ccccc4C3)ccc2Sc2ccccc21 ... 95%
22. O=C(NCc1ccccc1)c1ccc2c(c1)N=C(c1ccccc1)c1ccccc1S2 [drawing 755] ... 111%
23. CCCNC(=O)c1ccc2c(c1)N=C(c1ccc(Br)cc1)c1ccccc1S2 [drawing 1055] ... 92%
24. O=C(NC1CCC(F)(F)CC1)c1ccc2c(c1)N=C(c1ccc(Cl)s1)c1ccccc1S2 [drawing 767] ... 71%
25. O=C(NCc1cccnc1)c1ccc2c(c1)N=C(c1ccc(Cl)c(Cl)c1)c1ccccc1S2 [drawing 669] ... 107%
26. CC(C)CNC(=O)c1ccc2c(c1)N=C(c1cccc(F)c1)c1ccccc1S2 [drawing 629] ... 112%
27. CCCCNC(=O)c1ccc2c(c1)N=C(C1CCCCC1)c1ccccc1S2 [drawing 937] ... 106%
28. CCCCNC(=O)c1ccc2c(c1)N=C(c1ccccc1F)c1ccccc1S2 [drawing 1129] ... 96%
29. COc1ccc(C2=Nc3cc(C(=O)NN4[C@H](C)CCC[C@@H]4C)ccc3Sc3ccccc32)cc1 [drawing 730] ... 99%
30. CCCC1=Nc2cc(C(=O)NCc3ccc(F)cc3)ccc2Sc2ccccc21 [drawing 787] ... 107%
31. Cc1ccsc1C1=Nc2cc(C(=O)NN3CCCCC3)ccc2Sc2ccccc21 [drawing 1045] ... 100%
32. CCCC1=Nc2cc(C(=O)NCc3ccccc3OC)ccc2Sc2ccccc21 ... 91%
33. CC(C)CNC(=O)c1ccc2c(c1)N=C(c1ccccc1F)c1ccccc1S2 [drawing 627] ... 118%
34. CCCCNC(=O)c1ccc2c(c1)N=C(c1cccc(Cl)c1)c1ccccc1S2 [drawing 737] ... 98%
35. O=C(NCCc1cccc(Cl)c1)c1ccc2c(c1)N=C(c1ccc(F)cc1)c1ccccc1S2 [drawing 919] ... 98%
